TGT: T1, human TREM2 (human, UniProt Q9NZC2 19-174, limits assumed)
T1 construct: also called triggering receptor expressed on myeloid cells 2
T1 sequence: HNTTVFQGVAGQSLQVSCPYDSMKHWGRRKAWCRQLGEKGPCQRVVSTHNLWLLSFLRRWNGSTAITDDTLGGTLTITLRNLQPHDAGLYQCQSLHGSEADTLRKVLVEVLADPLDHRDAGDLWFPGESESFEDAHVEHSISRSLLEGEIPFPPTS
ASSAY OVERVIEW: 2nd screen 10 nM
READOUT: Binding Signal (fold over 6E7 Parental antibody) (fold)
Give just the number in fold; leave the unit off.

Example results:
BINDER: V63 (antibody, V domains shown) VH: EVQLVQSGAEVKKPGESLKISCKGSGYSFRSYWIAWVRQMPGKGLEWMGIIYPGDSDTRYSPSFQGQVTISADKSISTAYLQWSSLKASDTAMYFCARSRTFYYDSSDYFDYWGQGTLVTVSS VL: DIQMTQSPSSVSASVGDRVTITCRASQGISSWLAWYQQKPGKAPKLLIYAASSLQRGVPSRFSGSGSGTDFTLTISSLQPEDFATYFCQQADRFPRTFGQGTKLEIK
UNIT STRING: fold
READING: 3.71
//
BINDER: V4 (antibody, V domains shown) VH: EVQLVQSGAEVKKPGESLKISCKGSGYSFGSYWIAWVRQMPGKGLEWMGIIYPGDSDTRVSPSFQGQVTISADKSISTAYLQWSSLKASDTAMYFCARSRTFYYDSSDYFDYWGQGTLVTVSS VL: DIQMTQSPSSVSASVGDRVTITCRASQGISSWLAWYQQKPGKAPKLLIYAASRLQNGVPSRFSGSGSGTDFTLTISSLQPEDFATYFCQQADSYPRTFGQGTKLEIK
UNIT STRING: fold
READING: 5.51

// below: Binding Signal (fold over 6E7 Parental antibody) requested for another binder
get_value(item= V64 (antibody, V domains shown) VH: EVQLVQSGAEVKKPGESLKISCKGSGYSFQSYWIAWVRQMPGKGLEWMGIIYPGDSDTRYSPSFQGQVTISADKSISTAYLQWSSLKASDTAMYFCARGRTFYYDSSDYFDYWGQGTLVTVSS VL: DIQMTQSPSSVSASVGDRVTITCRASQGISSWLAWYQQKPGKAPKLLIYAASSLANGVPSRFSGSGSGTDFTLTISSLQPEDFATYFCQQADSYPRTFGQGTKLEIK , readout=Binding Signal (fold over 6E7 Parental antibody)) returns 5.48
